- study.target: P-glycoprotein
- Construct: plasma membrane vesicles from EHR2/DNR+ Ehrlich ascites tumour cells
- assay.procedure: inhibition of 3H-vincristine binding to plasma membrane vesicles, rapid filtration
quantity.name: pIC50
// field semantics: pIC50 = negative decimal log of concentration (mol/L)

Recorded result, `CN1CCN(CCCN2c3ccccc3Sc3ccc(C(F)(F)F)cc32)CC1` , pIC50: 4.63
